pIC50 listing for selected compounds.
Biological target: human NLRP3 (Homo sapiens, UniProt Q96P20)
Construct: Human whole blood is drawn from healthy volunteers after obtaining written informed consent; from tissue; host or cells: human whole blood from healthy volunteers (heparin lithium tubes)
Sequence (Q96P20 whole entry): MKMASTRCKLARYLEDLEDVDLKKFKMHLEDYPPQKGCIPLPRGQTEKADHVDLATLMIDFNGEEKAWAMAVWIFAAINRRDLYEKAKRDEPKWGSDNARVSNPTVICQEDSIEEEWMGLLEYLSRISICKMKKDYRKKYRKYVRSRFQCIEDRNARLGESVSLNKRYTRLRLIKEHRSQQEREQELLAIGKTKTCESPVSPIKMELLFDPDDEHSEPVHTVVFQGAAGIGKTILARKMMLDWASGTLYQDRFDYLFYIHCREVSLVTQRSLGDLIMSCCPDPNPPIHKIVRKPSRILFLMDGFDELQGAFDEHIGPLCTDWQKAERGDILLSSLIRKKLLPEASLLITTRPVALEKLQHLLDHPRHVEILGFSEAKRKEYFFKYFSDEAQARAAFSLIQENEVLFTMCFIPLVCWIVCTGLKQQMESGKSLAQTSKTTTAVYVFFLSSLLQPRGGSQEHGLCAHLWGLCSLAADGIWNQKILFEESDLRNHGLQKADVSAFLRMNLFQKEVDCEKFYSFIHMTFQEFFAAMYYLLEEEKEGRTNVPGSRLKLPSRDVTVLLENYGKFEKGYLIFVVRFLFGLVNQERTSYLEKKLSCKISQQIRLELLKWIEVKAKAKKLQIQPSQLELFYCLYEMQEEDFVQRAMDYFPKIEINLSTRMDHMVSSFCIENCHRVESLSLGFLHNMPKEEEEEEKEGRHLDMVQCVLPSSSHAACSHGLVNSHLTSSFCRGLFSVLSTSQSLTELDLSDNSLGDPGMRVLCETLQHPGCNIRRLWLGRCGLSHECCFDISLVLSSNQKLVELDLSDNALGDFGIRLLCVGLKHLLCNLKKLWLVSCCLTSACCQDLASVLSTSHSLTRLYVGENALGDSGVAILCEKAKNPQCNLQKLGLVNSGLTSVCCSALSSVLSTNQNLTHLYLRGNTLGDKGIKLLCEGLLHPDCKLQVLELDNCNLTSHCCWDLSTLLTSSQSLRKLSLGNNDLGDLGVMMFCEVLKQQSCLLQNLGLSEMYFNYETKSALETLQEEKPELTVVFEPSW
Experiment: Human whole blood (hWB) NLRP3 assay (IL-1β release after LPS priming and ATP activation)
Assay type: cell-based
Settings: human whole blood; numeric values of Tables D and E; read-out: hWB IL-1β IC50
pIC50: −log10 of the molar value.
Parameter: pIC50

Compound	Comparison Sign	Result Value
CC1(C)C(=O)N(c2cccn(CCCC(=O)O)c2=O)c2c(F)cc(C3CC3)c(F)c21	=	5.72
CC1(C)C(=O)N(c2cncn(CCCC(=O)O)c2=O)c2c(F)cc(C3CC3)c(F)c21	=	6.33
CC1(C)C(=O)N([C@@H]2CCN(CCCC(=O)O)C2=O)c2ccc(C3CC3)c(F)c21 (stereo in doubt) [Compound 18A*]	=	5.47
CC1(C)C(=O)N([C@H]2CCN(CCCC(=O)O)C2=O)c2ccc(C3CC3)c(F)c21 (stereo in doubt) [Compound 18B*]	<	3.30
CC1(C)C(=O)N(c2nccn(CCCC(=O)O)c2=O)c2c(F)cc(C3CC3)c(F)c21	=	6.41
CC1(C)C(=O)N(c2ccnn(CCCC(=O)O)c2=O)c2c(F)cc(C3CC3)c(F)c21	=	6.21

====

Molecular target: human NLRP3 (Homo sapiens)
Construct: Human whole blood is drawn from healthy volunteers after obtaining written informed consent; from tissue; host or cells: human whole blood from healthy volunteers (heparin lithium tubes)
Experiment: Human whole blood (hWB) NLRP3 assay (IL-1β release after LPS priming and ATP activation)
Assay type: cell-based
Details: human whole blood, LPS 1 μg/ml priming, ATP activation; Table C, class symbols; read-out: hWB IL-1β IC50
Measured IC50 accompanies every entry in the list below.

Compound	IC50
CC1(C)C(=O)N(c2nccn(CCCC(=O)O)c2=O)c2c(F)cc(C3CC3)c(F)c21 [Compound 10]	300 to 500 nM
CC1(C)C(=O)N(c2cncn(CCCC(=O)O)c2=O)c2c(F)cc(C3CC3)c(F)c21 [Compound 8]	300 to 500 nM
CC1(C)C(=O)N([C@H]2CC(C)(C)N(CCCC(=O)O)C2=O)c2c(F)cc(C3CC3)c(F)c21 (single isomer, unassigned) [Compound 25B]	≥ 10000 nM
Cc1ccc(N2C(=O)C(C)(C)c3c(F)c(C4CC4)cc(F)c32)c(=O)n1CCCC(=O)O [Compound 6]	1000 to 10000 nM
Cc1cc(N2C(=O)C(C)(C)c3c(F)c(C4CC4)cc(F)c32)c(=O)n(CCCC(=O)O)c1 [Compound 5]	1000 to 10000 nM
CC1(C)C(=O)N(c2cc(-c3ccccc3)cn(CCCC(=O)O)c2=O)c2c(F)cc(C3CC3)c(F)c21 [Compound 13]	≥ 10000 nM
CC1(C)C(=O)N(c2nccn([C@@H]3CCC[C@H]3CC(=O)O)c2=O)c2c(F)cc(C3CC3)c(F)c21 (single isomer, unassigned) [Compound 20D*]	500 to 1000 nM
CC1(C)C(=O)N(c2cccn(CCCC(=O)O)c2=O)c2c(F)cc(Br)cc21 [Compound 1]	1000 to 10000 nM
CC1(C)C(=O)N(c2cc3ccccc3n(CCCC(=O)O)c2=O)c2c(F)cc(C3CC3)c(F)c21 [Compound 9]	1000 to 10000 nM
CC1(C)C(=O)N(c2cc(C3CC3)cn(CCCC(=O)O)c2=O)c2c(F)cc(C3CC3)c(F)c21 [Compound 14]	1000 to 10000 nM
CC1(C)C(=O)N(c2nccn([C@H]3CCC[C@@H]3CC(=O)O)c2=O)c2c(F)cc(C3CC3)c(F)c21 (single isomer, unassigned) [Compound 20C*]	500 to 1000 nM
CC1(C)C(=O)N([C@@H]2CCN(CCCC(=O)O)C2=O)c2c(F)cc(C3CC3)cc21 (stereo in doubt) [Compound 22A*]	< 300 nM
C[C@@H](CCC(=O)O)N1CC[C@@H](N2C(=O)C(C)(C)c3c(F)c(C4CC4)cc(F)c32)C1=O (single isomer, unassigned) [Compound 24A*]	300 to 500 nM
CC1(C)C(=O)N([C@@H]2CCN(CCCC(=O)O)C2=O)c2ccc(C3CC3)c(F)c21 (stereo in doubt) [Compound 18A*]	1000 to 10000 nM
CC1(C)C(=O)N([C@H]2CCN(CCCC(=O)O)C2=O)c2ccc(C3CC3)c(F)c21 (stereo in doubt) [Compound 18B*]	≥ 10000 nM
C[C@H](CCC(=O)O)N1CC[C@@H](N2C(=O)C(C)(C)c3c(F)c(C4CC4)cc(F)c32)C1=O (single isomer, unassigned) [Compound 24D*]	1000 to 10000 nM
CC1(C)C(=O)N([C@H]2CCN(CCCC(=O)O)C2=O)c2c(F)cc(C3CC3)c(F)c21 [Compound 16B]	1000 to 10000 nM
CC1(C)C(=O)N([C@@H]2CC(C)(C)N(CCCC(=O)O)C2=O)c2c(F)cc(C3CC3)c(F)c21 (single isomer, unassigned) [Compound 25A]	≥ 10000 nM
Cc1ccn(CCCC(=O)O)c(=O)c1N1C(=O)C(C)(C)c2c(F)c(C3CC3)cc(F)c21 (single isomer, unassigned) [Compound 4A*]	≥ 10000 nM
CC1(C)C(=O)N([C@@H]2CCN(CCCC(=O)O)C2=O)c2c(F)cc(Cl)c(F)c21 (stereo in doubt) [Compound 23A]	1000 to 10000 nM
CC1(C)C(=O)N(c2cccn(CCCC(=O)O)c2=O)c2c(F)cc(C3CC3)cc21 [Compound 2]	1000 to 10000 nM
CC1(C)C(=O)N(c2nccn(CCCC(=O)O)c2=O)c2ccc(C3CC3)c(F)c21 [Compound 21]	1000 to 10000 nM
C[C@@H](CCC(=O)O)N1CC[C@H](N2C(=O)C(C)(C)c3c(F)c(C4CC4)cc(F)c32)C1=O (single isomer, unassigned) [Compound 24C*]	≥ 10000 nM
CC1(C)C(=O)N([C@@H]2CCN(CCCC(=O)O)C2=O)c2c(F)cc(C3CC3)c(F)c21 [Compound 16A]	< 300 nM
CC1(C)C(=O)N(c2c(=O)n(CCCC(=O)O)cc3ccccc23)c2c(F)cc(C3CC3)c(F)c21 [Compound 15]	≥ 10000 nM
CC1(C)C(=O)N(c2cc(C(F)(F)F)cn(CCCC(=O)O)c2=O)c2c(F)cc(C3CC3)c(F)c21 [Compound 12]	1000 to 10000 nM
C[C@@H](CC(=O)O)CN1CC[C@@H](N2C(=O)C(C)(C)c3c(F)c(C4CC4)cc(F)c32)C1=O (single isomer, unassigned) [Compound 26A*]	300 to 500 nM
